This collection of values is drawn from PubChem BioAssay.

Consider the following compounds; for each one, report its composite z-score.
# TEST METHOD NOTES: small-molecule microarray binders of probe aLefty2, primary screen, biochemical, biotinylated probe, 635/667 nm fluorescence (AID 1094);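 also: score merges spot fluorescence near 667 nm with spot signal-to-noise ratio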
# APPLIED CONDITIONS: higher = more signal
One number for each entry.

Recorded results for 6 compounds are shown here.
COCCOC(=O)N1C(=O)[C@@]2(c3cc(C#CC4(O)CCCCCC4)ccc31)[C@H](c1ccc(OCCO)cc1)N1[C@H](c3ccccc3)[C@H](c3ccccc3)OC(=O)[C@H]1[C@@H]2C(N)=O; 0.0494
C=C(CCCC)/C(=C/C[C@H](OC(C)=O)c1cccc(OCCO)c1)c1cc(C(=O)OC)ccc1OC; -0.101
COc1ccc(NN2C(C(O)c3cc(C(F)(F)F)cc(C(F)(F)F)c3)C=CC3C(=O)N(C4CCCCC4)C(=O)C32)cc1 (stereo not drawn); 0.849
O=C1N(Cc2ccccc2)c2ccccc2[C@H]2OC(c3ccc(OCCCO)cc3)=N[C@@]12Cc1ccccc1; -0.0058
CCOC(=O)C1=CC[C@@H](c2ccccc2)N(S(=O)(=O)C[Si](C)(C)C)[C@H]1c1ccccc1; 0.138
Cc1ccc(F)cc1S(=O)(=O)N[C@@H]1CCN(Cc2ccc3[nH]ccc3c2)C1; -0.177

I'm hoping you can list composite z-score for every compound here, please.
1. O=C1C2C=CC(C(O)C(c3ccccc3)c3ccccc3)N(Nc3ccccc3)C2C(=O)N1c1ccccc1 (stereo not drawn)
2. CN(C)CCCNC(=O)[C@@]1(Cc2ccccc2I)c2ccccc2C(=O)N(Cc2ccccc2)[C@H]1c1ccc(CO)cc1

Output line:
0.0731
-0.542
